Value source: PubChem BioAssay (NCATS)

assayRemarks: NFAT Signaling Pathway (AID 444);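 further: carbachol stimulus at about its EC50 of 1 µM final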
conditionInfo: Jurkat NFAT-bla M1, carbachol, beta-lactamase ratio, 5 h; at 7.69 µM (top of the series) unless noted
Results filed as inconclusive are left out. Activity calls are given as the source filed them. The call rests on the fitted dose curve; in most records, active means well fitted curve in either direction with a large enough effect (not every such curve was filed as active); inconclusive means small, poorly fitted or top-dose-only effect, or another doubt; inactive means flat fitted curve, though single readings scatter.
Outcomes you can answer with include only these: active, inactive

Prompt: Outcome logged for COc1ccccc1CNc1cc(-c2cccc(C#N)c2)ncn1 in this assay:
Completion: inactive

Prompt: Quick one: COc1ccc2[nH]cc(CCNc3cc(-c4cccnc4)ncn3)c2c1
Completion: inactive

Prompt: Another compound to check: COc1cccc(-c2nccc(N(C)Cc3ccco3)n2)c1
Completion: inactive

Prompt: Lookup CN1CCN(c2ncc3nc(-c4ccc(Cl)cc4)c(=O)n(CCC#N)c3n2)CC1
Completion: active

Prompt: Now consider CN(C)c1ccc(-c2cncnc2NCc2cccnc2)cc1 and answer again.
Completion: inactive

Prompt: And for N#Cc1ccc(CN2CC[C@@]3(CCCN(C(=O)c4cccc(F)c4)C3)C2)cc1 ?
Completion: inactive

Prompt: Queued: CCNc1ncc2nc(-c3ccc(F)cc3)c(=O)n(C[C@H]3CCCO3)c2n1
Completion: inactive

Prompt: Again, but for COCC(=O)N1CCC2(CCN(Cc3ccncc3)CC2)CC1
Completion: inactive

Prompt: Now the same for O=S(=O)(c1ccccc1)N1CCC2(CCCN(c3cccc(-c4ccccc4)c3)C2)CC1
Completion: inactive

Prompt: Then COc1ccc2[nH]cc(CCNc3ncncc3-c3ccccc3CN(C)C)c2c1 ?
Completion: inactive

Prompt: And the next one, N#CCCn1c(=O)cnc2cnc(N3CCNCC3)nc21 ?
Completion: inactive
